systemName: recombinant human SYK (GST-hSYK fusion protein) (Homo sapiens, UniProt P43405)
procedureDetails: biochemical
measurementSetup: rhSYK Activity, Table 36A
Recorded measurements of IC50, one per entry
propertyLabel: IC50

>>> measurement("COC(=O)C1CC=C(c2ncc(-c3cc(C)cc(Nc4nccc(C(F)(F)F)n4)c3)s2)CC1(C)C (stereo not shown) [Example 36A-13]")
"0.1 to 1 µM"
>>> measurement("Cc1cc(Nc2nccc(C(F)(F)F)n2)cc(-c2cnc(C3=CCC(C(=O)O)CC3)s2)c1 (stereo not shown) [Example 36A-3]")
"< 0.1 µM"
>>> measurement("Cc1cc(Nc2nccc(C(F)(F)F)n2)cc(-c2cnc(C3=CC(=O)CC3)s2)c1 [Example 36A-6]")
"< 0.1 µM"
>>> measurement("COC(=O)C1CCC(c2ncc(-c3cc(C)cc(Nc4nccc(C(F)(F)F)n4)c3)s2)=CC1(C)C (stereo not shown) [Example 36A-11]")
"0.1 to 1 µM"
>>> measurement("Cc1cc(Nc2nccc(C(F)(F)F)n2)cc(-c2cnc(C3=CC(=O)CCC3)s2)c1 [Example 36A-7]")
"< 0.1 µM"
>>> measurement("CCOC(=O)C1CC=C(c2ncc(-c3cccc(Nc4nccc(C(F)(F)F)n4)c3)s2)CC1 (stereo not shown) [Example 36A-1]")
"0.1 to 1 µM"
>>> measurement("Cc1cc(Nc2nccc(C(F)(F)F)n2)cc(-c2cnc(C3=CC(=O)CCCC3)s2)c1 [Example 36A-9]")
"< 0.1 µM"

###

systemName: recombinant human SYK (GST-hSYK fusion protein) (Homo sapiens)
procedureDetails: biochemical
measurementSetup: rhSYK Activity, Table 21
pIC50: −log10 of the molar value.
Recorded measurements of pIC50, one per entry
propertyLabel: pIC50

>>> measurement("COC(=O)[C@H]1CC[C@H](c2ncc(-c3cccc(Nc4nccc(C(F)(F)F)n4)c3)s2)CC1")
"6.00 to 7.00"
>>> measurement("CCN(CC)CCC(C)(O)c1ncc(-c2cccc(Nc3nccc(C(F)(F)F)n3)c2)s1 (stereo not shown)")
"6.00 to 7.00"
>>> measurement("CN1CCCCCC1c1ncc(-c2cccc(Nc3nccc(C(F)(F)F)n3)c2)s1 (stereo not shown)")
"6.00 to 7.00"
>>> measurement("FC(F)(F)c1ccnc(Nc2cccc(-c3cnc(C4CCc5ccccc54)s3)c2)n1 (stereo not shown)")
"5.00 to 6.00"

###

systemName: recombinant human SYK (GST-hSYK fusion protein) (Homo sapiens)
procedureDetails: biochemical
measurementSetup: rhSYK Activity, Table 113D, upper part
Recorded measurements of IC50, one per entry
propertyLabel: IC50

>>> measurement("Cc1cc(Nc2nccc(C(F)(F)F)n2)cc(-c2cnc(C3(c4ccc(C(=O)O)cc4)CC3)s2)c1 [Example 113D-3]")
"< 100 nM"
>>> measurement("Cc1cc(Nc2nccc(C(F)(F)F)n2)cc(-c2cnc(C(C)(C)c3ccc(C(=O)O)cc3)s2)c1 [Example 113D-5]")
"< 100 nM"
>>> measurement("COC(=O)c1ccc(C(C)(C)c2ncc(-c3cc(C)cc(Nc4nccc(C(F)(F)F)n4)c3)s2)cc1 [Example 113D-9]")
"100 to 1000 nM"
>>> measurement("C=C(c1ccc(C(=O)OC)cc1)c1ncc(-c2cc(C)cc(Nc3nccc(C(F)(F)F)n3)c2)s1 [Example 113D-2]")
"100 to 1000 nM"
>>> measurement("C=C(c1ccc(C(=O)O)cc1)c1ncc(-c2cc(C)cc(Nc3nccc(C(F)(F)F)n3)c2)s1 [Example 113D-1]")
"< 100 nM"
>>> measurement("Cc1cc(Nc2nccc(C(F)(F)F)n2)cc(-c2cnc(C(F)(F)c3ccc(C(=O)O)cc3)s2)c1 [Example 113D-7]")
"< 100 nM"
